Entries and their relative viability
System: SW 1573
Test: relative viability (nuclei count vs DMSO), 5 days (fraction); higher = more cells survive
Settings: first compound 2.53 µM
Readout Kind: relative viability

[[record]]
molecule = "COc1nc(C)cnc1NS(=O)(=O)c1cccnc1-c1ccc(-c2nnco2)cc1 [Zibotentan] + Nc1nc2[nH]cc(CCc3ccc(C(=O)N[C@@H](CCC(=O)O)C(=O)O)cc3)c2c(=O)[nH]1 [Pemetrexed] (partner 0.2 µM)"
numeric_value = 0.823

[[record]]
molecule = "O=c1cc(-c2cccc3c2Sc2ccccc2S3)oc(N2CCOCC2)c1 + CS(=O)(=O)N1CCN(Cc2cc3nc(-c4cccc5[nH]ncc45)nc(N4CCOCC4)c3s2)CC1 [Pictilisib] (partner 1 µM)"
numeric_value = 0.556

[[record]]
molecule = "O=c1cc(-c2cccc3c2Sc2ccccc2S3)oc(N2CCOCC2)c1 + COc1cc2c(Oc3ccc(NC(=O)C4(C(=O)Nc5ccc(F)cc5)CC4)cc3F)ccnc2cc1OCCCN1CCOCC1 [Foretinib] (partner 0.25 µM)"
numeric_value = 0.989


###

Tested on: NCI-H1755
Assay: relative viability (nuclei count vs DMSO), 5 days (fraction); higher = more cells survive
Details: first compound 0.1 µM
Readout Kind: relative viability

[[record]]
compound = "O=c1cc(N2CCOCC2)oc2c(-c3cccc4c3sc3ccccc34)cccc12 + C[C@@H](Oc1cc(-c2cnn(C3CCNCC3)c2)cnc1N)c1c(Cl)ccc(F)c1Cl [Crizotinib] (partner 1 µM)"
target_desc = "NCI-H1755"
readout_kind = "relative viability"
numeric_value = 0.838

[[record]]
compound = "CCN(CC)CCCCNc1ncc2cc(-c3cc(OC)cc(OC)c3)c(NC(=O)NC(C)(C)C)nc2n1 + Nc1nc2[nH]cc(CCc3ccc(C(=O)N[C@@H](CCC(=O)O)C(=O)O)cc3)c2c(=O)[nH]1 [Pemetrexed] (partner 0.2 µM)"
target_desc = "NCI-H1755"
readout_kind = "relative viability"
numeric_value = 0.356

[[record]]
compound = "O=c1cc(N2CCOCC2)oc2c(-c3cccc4c3sc3ccccc34)cccc12 + CC(=O)c1c(C)c2cnc(Nc3ccc(N4CCNCC4)cn3)nc2n(C2CCCC2)c1=O [Palbociclib] (partner 0.5 µM)"
target_desc = "NCI-H1755"
readout_kind = "relative viability"
numeric_value = 0.488

[[record]]
compound = "CCN(CC)CCCCNc1ncc2cc(-c3cc(OC)cc(OC)c3)c(NC(=O)NC(C)(C)C)nc2n1 + NC(=O)Nc1cc(-c2cccc(F)c2)sc1C(=O)N[C@H]1CCCNC1 [AZD7762] (partner 0.2 µM)"
target_desc = "NCI-H1755"
readout_kind = "relative viability"
numeric_value = 0.525

[[record]]
compound = "O=c1cc(N2CCOCC2)oc2c(-c3cccc4c3sc3ccccc34)cccc12 + O=C(CCCCCCC(=O)Nc1ccccc1)NO [Vorinostat] (partner 1 µM)"
target_desc = "NCI-H1755"
readout_kind = "relative viability"
numeric_value = 0.793

[[record]]
compound = "O=c1cc(N2CCOCC2)oc2c(-c3cccc4c3sc3ccccc34)cccc12 + Cc1nc(Nc2ncc(C(=O)Nc3c(C)cccc3Cl)s2)cc(N2CCN(CCO)CC2)n1 [Dasatinib] (partner 0.075 µM)"
target_desc = "NCI-H1755"
readout_kind = "relative viability"
numeric_value = 0.471

[[record]]
compound = "O=c1cc(N2CCOCC2)oc2c(-c3cccc4c3sc3ccccc34)cccc12 + CC(C)C[C@H](NC(=O)[C@H](Cc1ccccc1)NC(=O)c1cnccn1)B(O)O [Bortezomib] (partner 0.002 µM)"
target_desc = "NCI-H1755"
readout_kind = "relative viability"
numeric_value = 0.959

[[record]]
compound = "O=c1cc(N2CCOCC2)oc2c(-c3cccc4c3sc3ccccc34)cccc12 + Nc1nc2[nH]cc(CCc3ccc(C(=O)N[C@@H](CCC(=O)O)C(=O)O)cc3)c2c(=O)[nH]1 [Pemetrexed] (partner 0.2 µM)"
target_desc = "NCI-H1755"
readout_kind = "relative viability"
numeric_value = 0.425

[[record]]
compound = "O=c1cc(N2CCOCC2)oc2c(-c3cccc4c3sc3ccccc34)cccc12 + Nc1ncn([C@H]2C[C@H](O)[C@@H](CO)O2)c(=O)n1 [Decitabine] (partner 2 µM)"
target_desc = "NCI-H1755"
readout_kind = "relative viability"
numeric_value = 0.711

[[record]]
compound = "O=c1cc(N2CCOCC2)oc2c(-c3cccc4c3sc3ccccc34)cccc12 + Cc1nc(NC(=O)N2CCC[C@H]2C(N)=O)sc1-c1ccnc(C(C)(C)C(F)(F)F)c1 [Alpelisib] (partner 2 µM)"
target_desc = "NCI-H1755"
readout_kind = "relative viability"
numeric_value = 0.984

[[record]]
compound = "O=c1cc(N2CCOCC2)oc2c(-c3cccc4c3sc3ccccc34)cccc12 + C[C@]1(O)C[C@@H](c2nc(-c3ccc4ccc(-c5ccccc5)nc4c3)c3c(N)nccn32)C1 [Linsitinib] (partner 1 µM)"
target_desc = "NCI-H1755"
readout_kind = "relative viability"
numeric_value = 1.03

[[record]]
compound = "O=c1cc(N2CCOCC2)oc2c(-c3cccc4c3sc3ccccc34)cccc12 + CS(=O)(=O)N1CCN(Cc2cc3nc(-c4cccc5[nH]ncc45)nc(N4CCOCC4)c3s2)CC1 [Pictilisib] (partner 1 µM)"
target_desc = "NCI-H1755"
readout_kind = "relative viability"
numeric_value = 0.457

[[record]]
compound = "CCN(CC)CCCCNc1ncc2cc(-c3cc(OC)cc(OC)c3)c(NC(=O)NC(C)(C)C)nc2n1 + Cc1nc(Nc2ncc(C(=O)Nc3c(C)cccc3Cl)s2)cc(N2CCN(CCO)CC2)n1 [Dasatinib] (partner 0.075 µM)"
target_desc = "NCI-H1755"
readout_kind = "relative viability"
numeric_value = 0.518

[[record]]
compound = "CCN(CC)CCCCNc1ncc2cc(-c3cc(OC)cc(OC)c3)c(NC(=O)NC(C)(C)C)nc2n1 + CC(=O)c1c(C)c2cnc(Nc3ccc(N4CCNCC4)cn3)nc2n(C2CCCC2)c1=O [Palbociclib] (partner 0.5 µM)"
target_desc = "NCI-H1755"
readout_kind = "relative viability"
numeric_value = 0.462

